Biological target: ATP-dependent Clp protease proteolytic subunit (Bacillus subtilis (strain 168))
Test: qHTS Assay for Activators of ClpP
Details: purified B. subtilis ClpP, FRET peptide cleavage, 20 min; series mostly up to 57.5 µM
About 6,400 (1.9%) of roughly 340,000 compounds were called active. Not shown: some 4% with an inconclusive outcome. Calls come from the whole dose curve; as a rule, active = well fitted falling curve with a large enough effect; inconclusive = small, poorly fitted or top-dose-only effect; inactive = no such curve, though single readings can be large or run the other way. This is one part of a sample in which actives are shown more often than they occur.
Classes to choose from: true for active, false for inactive

Look over these answered cases.
1) COc1ccc(Cl)cc1NC(=O)C(C)N1CCc2ccccc21 (stereo not given); true
2) CCc1ccc(-c2cc(C(=O)NN3CCN(C)CC3)c3ccccc3n2)cc1; true
3) CN(O)C(=S)c1ccccc1; true
4) O=C(COC(=O)c1ncc(Cl)c(Cl)c1Cl)NCc1ccccc1; false
5) COc1ccc(Cl)cc1NC(=O)CNc1ccccc1F; false
6) COc1ccc(-c2cc(C(=O)NCCCN3CCCC3=O)c3ccccc3n2)cc1OC; false
7) Cc1nc2cccnc2nc1C; false
8) Cc1nc2ccccc2cc1O; true

Hello, I am checking results. What call was entered for CCC(C)(C)NC(=O)/C=C/c1cc(OC)c(OC)c(S(=O)(=O)N2CCc3ccccc32)c1 ? false

For COCCNC(=S)N1CCC(NC(=O)C23CC4CC(CC(C4)C2)C3)CC1 then? true

For CC(C)CC1C(=O)N(Cc2cn(CC3CCCCC3)nn2)CCS(=O)(=O)N1Cc1ccc(-c2ccc(Cl)cc2)cc1 (stereo not given) then? false

For Cc1cc(=O)oc2cc(OCC3CC(c4ccccc4Cl)=NO3)ccc12 (stereo not given) then? true

For Cc1ccc(-c2cc(C(=O)NC3CCN(Cc4ccccc4)CC3)c3ccccc3n2)cc1 then? false

* * *

Target: ATP-dependent Clp protease proteolytic subunit (Bacillus subtilis (strain 168))
Assay: qHTS Assay for Activators of ClpP
Conditions: purified B. subtilis ClpP, FRET peptide cleavage, 20 min; series mostly up to 57.5 µM
Excerpt: The Clp protease proteolytic subunit (ClpP) is the core unit of the Clp complex belonging to the peptidase family S14 that hydrolyzes protein into small peptides in the presence of ATP and magnesium. It is ubiquitously expressed and is the major protease in bacteria. […] Unlike common antibiotics that simply interfere with the essential enzyme activity, ADEP binding activates the ClpP core in the absence of the regulatory Clp-ATPases leading to uncontrolled proteolysis and eventually cell death. […]
Out of some 340,000 compounds screened, about 6,400 (1.9%) were called active. Another 4% or so got no clear call; they are omitted. The call rests on the fitted dose curve; in most records, active means well fitted falling curve with a large enough effect; inconclusive means small, poorly fitted or top-dose-only effect; inactive means no such curve, though single readings can be large or run the other way. The sample as a whole holds a higher share of actives than the screen did.
Classes to choose from: class 1 = active, class 0 = inactive

Look over these answered cases.
1) CCn1c(=O)c(C(=O)NCc2ccc3c(c2)OCO3)c(O)c2ccccc21; class 0
2) O=C1c2ccccc2C(=O)N1c1cccc2ccccc12; class 1
3) N#Cc1cccc(NC(=O)c2cc(C3CCCCN3C(=O)CCc3ccccc3)on2)c1 (stereo unspecified); class 0
4) CCOC(=O)c1ccn(S(=O)(=O)c2ccc(C)cc2)c1-c1ccccc1; class 0
5) CC1=C(C)CC2C(=O)N(c3cccc4ccccc34)C(=O)C2C1 (stereo unspecified); class 0

Hello, I am checking results. What call was entered for OC[C@H]1O[C@@H](c2nc(-c3nc(-c4ccc(F)cc4)no3)cs2)[C@H](O)[C@@H](O)[C@H]1O ? class 0

* * *

Biological target: ATP-dependent Clp protease proteolytic subunit (Bacillus subtilis (strain 168))
Assay: qHTS Assay for Activators of ClpP; note: the source files actives as falling curves though it sought activators and does not explain the sign; nearly all actives have a fitted effect of over 65% in size
Conditions: purified B. subtilis ClpP, FRET peptide cleavage, 20 min; series mostly up to 57.5 µM
In all, about 340,000 compounds went through this assay and about 6,400 (1.9%) were called active. Not shown: some 4% with an inconclusive outcome. The call rests on the fitted dose curve; in most records, active means well fitted falling curve with a large enough effect; inconclusive means small, poorly fitted or top-dose-only effect; inactive means no such curve, though single readings can be large or run the other way. The entries come from a sample that favours actives as a whole.
Classes to choose from: true = active, false = inactive

1. N#Cc1ccc(C(C(=O)NCc2ccccc2)n2c(=O)c(-c3ccco3)nc3ccccc32)cc1 (stereo not drawn); false
2. CC1=C(C(=O)Nc2cccc(C(=O)NCC(C)c3ccccc3)c2)SCCO1 (stereo not drawn); false
3. CCOCCCNC(=O)c1cn(CC)c2ccc(S(=O)(=O)N3CCc4ccccc4C3)cc2c1=O; false
4. O=[N+]([O-])c1cc(C(F)(F)F)ccc1NN=C1CCCC1; true
5. CC(=O)Nc1cccc(-c2cc(NC(C)=O)c3ncc(-c4ccccc4)n3c2)c1; false

Hello, I am checking results. What call was entered for O=C(O)Cc1ccc(NC(=O)Nc2cccc3ccccc23)cc1 ? false

For CC(C)(C)NC(=O)C(CCc1ccccc1)n1c(=O)c(-c2ccccc2)nc2ccccc21 (stereo not drawn) then? false

For Cc1cccnc1C(NC(=O)C1CCN(Cc2ccc(Cl)c(Cl)c2)CC1)c1ccc(Cl)cc1 (stereo not drawn) then? false

For Cc1ccc(C)c(OCCC(=O)OCC(=O)c2ccc3c(c2)NC(=O)CO3)c1 then? false

For COCCCNC(=O)Cn1cc(C(=O)C2CC2)c2ccccc21 then? false

For CC(C)(C)c1ccc(OCC(=O)N2CCC(c3nc4ccccc4s3)CC2)cc1 then? false

For COCCNC(=O)c1cc2c(Br)ccc(Br)c2nc1N then? false

For C=CCC[C@@H](CCCCC)OC(=O)/C=C/[C@@H](O)[C@H](O)C[C@H](O)CC=C then? false

* * *

Biological target: ATP-dependent Clp protease proteolytic subunit (Bacillus subtilis (strain 168))
Test: qHTS Assay for Activators of ClpP; note: the source files actives as falling curves though it sought activators and does not explain the sign; nearly all actives have a fitted effect of over 65% in size
Details: purified B. subtilis ClpP, FRET peptide cleavage, 20 min; series mostly up to 57.5 µM
About 6,400 (1.9%) of roughly 340,000 compounds were called active. Roughly 4% stayed inconclusive and do not appear here. The list comes from a sample in which actives are over-represented; it also holds close analogues and randomly drawn compounds.
measuredProperty: outcome

1. CCCNC(=O)C1(C)CCN1C(=O)C1(c2ccccc2)CC1 (stereo not drawn); inactive
2. COc1ccc(NC(=O)CCCC2CCCCC2)c(OC)c1; inactive
3. CCCCOCCCNC(=O)C[C@@H]1C[C@@]2(C(=O)OCC)CCCC=C2N(CCC2=CCCCC2)C1=O; inactive

* * *

Target: ATP-dependent Clp protease proteolytic subunit (Bacillus subtilis (strain 168)) (UniProt P80244)
Experiment: qHTS Assay for Activators of ClpP; note: the source files actives as falling curves though it sought activators and does not explain the sign; nearly all actives have a fitted effect of over 65% in size
Settings: purified B. subtilis ClpP, FRET peptide cleavage, 20 min; series mostly up to 57.5 µM
The whole screen tested about 340,000 compounds, of which about 6,400 (1.9%) were called active. About 4% were inconclusive and are not listed. Calls follow the shape of the dose curve; as a rule, active = well fitted falling curve with a large enough effect; inconclusive = small, poorly fitted or top-dose-only effect; inactive = no such curve, though single readings can be large or run the other way. The sample holds actives, similar compounds and a random draw of the others, so the mix is not that of the screen.
Classes to choose from: active, inactive

Hello, I am checking results. What call was entered for Cc1c(C(=O)CN2CCOCC2)[nH]c2ccccc12 ? inactive

For CCc1nc2c(OCc3ccc(C(F)(F)F)cc3)cccn2c1N(C)C(=O)CC(C)C then? inactive

For CC=CCn1c(SCCCc2ccccc2)nc2c1c(=O)[nH]c(=O)n2C then? inactive

For CC(C)(C)C(=O)c1c(N)[nH]c(C(=O)c2ccccc2)c1-c1ccc(F)cc1 then? inactive

For CCN(CC)c1nn2c(=O)c(C(=O)NCCc3ccccc3)cnc2s1 then? active

For CC1CCCN(c2nc3c(S(=O)(=O)c4ccc(C(C)C)cc4)nnn3c3ccsc23)C1 (stereo unspecified) then? inactive

For CCc1ccc(OC2(C)CCN(CCOc3ccc(C)cc3)C2)cc1 (stereo unspecified) then? inactive

For O=C(O)c1ccccc1-c1ccccc1C(=O)NCCc1ccccc1 then? inactive

For CC(=O)C1=CCC(c2ccccc2)N(S(=O)(=O)c2ccc(C)cc2)C1 (stereo unspecified) then? inactive

For COc1ccc(/C=C/c2ccnc3ccccc23)cc1OC then? inactive

For COc1cc2[nH]c(C)c(CCN3CCN(c4ccccc4)CC3)c2cc1OC then? inactive

* * *

Target: ATP-dependent Clp protease proteolytic subunit (Bacillus subtilis (strain 168))
Experiment: qHTS Assay for Activators of ClpP; note: the source files actives as falling curves though it sought activators and does not explain the sign; nearly all actives have a fitted effect of over 65% in size
Conditions: purified B. subtilis ClpP, FRET peptide cleavage, 20 min; series mostly up to 57.5 µM
Screen size: about 340,000 compounds; about 6,400 (1.9%) were called active. Not shown: some 4% with an inconclusive outcome. The call rests on the fitted dose curve; in most records, active means well fitted falling curve with a large enough effect; inconclusive means small, poorly fitted or top-dose-only effect; inactive means no such curve, though single readings can be large or run the other way. The list comes from a sample in which actives are over-represented; it also holds close analogues and randomly drawn compounds.
Classes to choose from: True = active, False = inactive

Look over these answered cases.
1. CCCn1c(=O)c(C(=O)Nc2cc(C)ccn2)c(O)c2ccccc21; False
2. O=C(Cc1ccc(Cl)cc1)Nc1ccc2nn(-c3ccc(Cl)cc3)nc2c1; False
3. Cc1ccccc1NC(=S)N(CCCN1CCOCC1)Cc1cccs1; True
4. COc1ccc(CCNC(=O)c2c(C)nn(-c3ccccc3)c2Cl)cc1; False
5. COc1cc(N)c(Cl)cc1C(=O)OCC(=O)c1ccc2c(c1)NC(=O)CO2; True
6. CC(CCCc1ccccc1)NC(=O)c1nn(-c2ccc(Cl)cc2)nc1CO (stereo not drawn); True
7. Cc1ccc(NC(=S)N(CCN(C)C)Cc2cccs2)cc1C; False

Now take the following molecule into account.
Hello, I am checking results. What call was entered for O=C(NCCCO)c1nn(-c2ccc(Cl)cc2)nc1CO ? True
